Biological target: MMP2 (Homo sapiens)
Sequence (P08253 110-660): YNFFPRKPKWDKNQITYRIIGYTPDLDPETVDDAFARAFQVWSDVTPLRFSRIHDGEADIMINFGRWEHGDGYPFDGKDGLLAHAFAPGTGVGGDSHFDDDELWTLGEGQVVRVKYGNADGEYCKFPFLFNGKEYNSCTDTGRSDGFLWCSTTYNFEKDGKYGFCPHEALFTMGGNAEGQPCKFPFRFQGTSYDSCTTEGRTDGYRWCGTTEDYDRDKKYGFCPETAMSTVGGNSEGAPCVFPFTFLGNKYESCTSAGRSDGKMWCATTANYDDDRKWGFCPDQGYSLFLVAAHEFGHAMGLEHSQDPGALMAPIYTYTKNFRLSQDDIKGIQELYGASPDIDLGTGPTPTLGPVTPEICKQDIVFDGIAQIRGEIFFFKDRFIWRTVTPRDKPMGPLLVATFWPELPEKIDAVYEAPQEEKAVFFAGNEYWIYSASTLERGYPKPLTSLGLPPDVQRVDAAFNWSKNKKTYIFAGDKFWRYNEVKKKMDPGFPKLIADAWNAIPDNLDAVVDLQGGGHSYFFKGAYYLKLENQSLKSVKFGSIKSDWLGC
Test: Inhibitory effects on human MMP2 (Method 1), enzyme assay with MOCAc-Pro-Leu-Gly-Leu-A2pr(Dnp)-Ala-Arg-NH2 substrate, 96-well
Type: biochemical
Details: Test Example No. 1-1 (Method 1, 96-well microplate); read-out: Human MMP2, IC50
pIC50: −log10 of the molar value. *1 amine or outer side, *2 acyl side, *3 side chain or, on linkers, in order; H or OH if unused. Where a SMILES comes first, the peptide text is derived from it. [ ]: non-standard residue; d: D form. The star is where a group is joined. X3 = O=C(Nc1ccc(S(=O)(=O)*)cc1)c1ccc(OC2CC2)cc1; Benzoyl(4-OPh) = O=C(c1ccc(Oc2ccccc2)cc1)*; d(γGlu) = O=C(O)[C@@H](CCC(=O)[*:2])N[*:1]; NMeGABA = CN(CCCC(=O)[*:2])[*:1]; NMeI = CC[C@H](C)[C@H](NC)C(=O)O; NMeD = CN[C@@H](CC(=O)O)C(=O)O; NMeV = CN[C@H](C(=O)O)C(C)C; β3hP = O=C(O)C[C@@H]1CCCN1; NMeA = CN[C@@H](C)C(=O)O; Dab = NCC[C@H](N)C(=O)O; GABA = NCCCC(=O)O
Examples of molecules with documented pIC50 follow.
endpoint_label: pIC50

[[record]]
molecule = "CC[C@H](C)[C@@H](C(=O)N1CCC[C@H]1C(N)=O)N(C)C(=O)[C@H](CC(C)C)NC(=O)[C@H](C)NC(=O)[C@H](CC(=O)O)NC(=O)[C@H](C)N(C)C(=O)CCCN(C)C(=O)c1ccc(Oc2ccccc2)cc1 [Compound 100] ({Benzoyl(4-OPh)}-[NMeGABA][NMeA]DAL[NMeI]P-NH2; N-terminus assumed)"
target_entity = "MMP2 (Homo sapiens)"
endpoint_label = "pIC50"
value_observed = 8.92

[[record]]
molecule = "CC[C@H](C)[C@@H](C(=O)N1CCC[C@H]1CC(N)=O)N(C)C(=O)[C@H](CC(C)C)NC(=O)[C@H](CCN)NC(=O)CC[C@@H](NS(=O)(=O)c1ccc(NC(=O)c2ccc(OC3CC3)cc2)cc1)C(=O)O [Compound 700] ({X3-d(γGlu)}-[Dab]L[NMeI][β3hP]-NH2; N-terminus assumed)"
target_entity = "MMP2 (Homo sapiens)"
endpoint_label = "pIC50"
value_observed = 9.39

[[record]]
molecule = "CC[C@H](C)[C@@H](C(=O)N1CCC[C@H]1C(N)=O)N(C)C(=O)[C@H](CC(C)C)NC(=O)[C@H](C)NC(=O)[C@H](CC(=O)O)NC(=O)[C@H](C(C)C)N(C)C(=O)CCCNC(=O)c1ccc(Oc2ccccc2)cc1 [Compound 119] ({Benzoyl(4-OPh)-GABA}-[NMeV]DAL[NMeI]P-NH2; N-terminus assumed)"
target_entity = "MMP2 (Homo sapiens)"
endpoint_label = "pIC50"
value_observed = 9.77

[[record]]
molecule = "CC[C@H](C)[C@@H](C(=O)N1CCC[C@H]1C(N)=O)N(C)C(=O)[C@H](CC(C)C)NC(=O)[C@H](C)NC(=O)[C@H](CC(=O)O)NC(=O)[C@H](CC(=O)O)N(C)C(=O)CCCNC(=O)c1ccc(Oc2ccccc2)cc1 [Compound 125] ({Benzoyl(4-OPh)-GABA}-[NMeD]DAL[NMeI]P-NH2)"
target_entity = "MMP2 (Homo sapiens)"
endpoint_label = "pIC50"
value_observed = 9.33

[[record]]
molecule = "CC[C@H](C)[C@@H](C(=O)N1CCC[C@H]1C(N)=O)N(C)C(=O)[C@H](CC(C)C)NC(=O)[C@H](C)NC(=O)[C@H](CC(=O)O)NC(=O)[C@H](C)N(C)C(=O)CCCNC(=O)c1ccc(Oc2ccccc2)cc1 [Compound 92] ({Benzoyl(4-OPh)-GABA}-[NMeA]DAL[NMeI]P-NH2; N-terminus assumed)"
target_entity = "MMP2 (Homo sapiens)"
endpoint_label = "pIC50"
value_observed = 9.51

